Measured values drawn from PubChem BioAssay for this set.

# assay details: Restrictive medium S. cerevisiae growth inhibition, OD615, pilot screen of yeast lifespan reduction project, restrictive growth control (AID 706);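 note: modified DeaD lifespan yeast strain shifted to restrictive glucose medium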
# test settings: OD615, 48 h, at 10 µM, hits give high values
For each entry below, report its growth inhibition value.
Answers are plain numbers, in %.

See these solved cases before continuing.
INSERT INTO results (compound, unit_spec, measured_value) VALUES
  ('O=C1NCCCC1C(=O)N1CCN(C(c2ccccc2)c2ccccc2)CC1 (stereo unspecified)', '%', 11.2),
  ('CCN1CCN(c2cc(C)c3cc(NC(=O)c4ccncc4)ccc3n2)CC1', '%', 1.77),
  ('CC1CCCCN1C(=O)CSCC(=O)Nc1nc(-c2cccs2)cs1 (stereo unspecified)', '%', -3.92);

Hi there! I need growth inhibition for each item below, if you can.
1. COc1ccc(-c2nc(=S)[nH][nH]2)cc1
2. COc1ccc(OCC(=O)Nc2cccc(C(C)=O)c2)cc1
3. c1ccc2cc3[nH]c(CN4CCCCC4)nc3cc2c1
4. Cc1cc(-c2nnco2)c(C)n1-c1ccc(F)cc1

[out]
1. -17
2. 15.9
3. -13.4
4. -5.7

Hi there! I need growth inhibition for each item below, if you can.
1. Cn1c(C(C#N)C(=O)Cc2cccc3ccccc23)nc2ccccc21 (stereo unspecified)
2. CCOc1ccc(NC(=O)N(CCN(C)C)C(C)c2ccncc2)cc1 (stereo unspecified)
3. Cc1ccccc1NS(=O)(=O)c1cccc(-c2nnc(-c3ccccc3)o2)c1
4. C=CCn1c(CSc2nc3ccccc3s2)nnc1SCC(=O)NCc1ccco1

[out]
-5.02
4.26
-5.78
30.4

###

# assay details: growth suppression of PTEN-deleted HCT116, pilot screen, cell-based, HCT116 clonal line, CellTiter-Glo (AID 824);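 note: 0% = 20 µM Hyamine control and 100% = vehicle cell control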
# test settings: 60 h, at 10 µM, hits give low values
Results filed as inconclusive are left out.
measured metric: viability (%)
Give bare numbers, in %.

See these solved cases before continuing.
INSERT INTO results (compound, measured_value) VALUES
  ('COc1ccc(C(=O)Oc2ccc3c(c2)OCO3)cc1OC', 100),
  ('CCCCCn1c(CNC(=O)CCC)nc2ccccc21', 96.4),
  ('CCCCN(CC)CCNC(=O)c1cc2c(=O)n(C)c3ccccc3c2n1C', 48.6),
  ('O=C(NCC1CCCO1)NC1(C(F)(F)F)Oc2ccccc2O1 (stereo unspecified)', 67.1),
  ('COc1cccc(C(=O)NCC(c2cccnc2)N2CCN(c3ccccc3OC)CC2)c1 (stereo unspecified)', 78),
  ('N#CCCN1CCN(S(=O)(=O)c2ccc(S(=O)(=O)N3CCOCC3)cc2)CC1', 98.8),
  ('CC(=O)NC(CCS(C)(=O)=O)C(=O)Nc1cccc(Cl)c1Cl (stereo unspecified)', 97),
  ('CCCC(=O)N1CCN(C2=NS(=O)(=O)c3ccccc32)CC1', 98.5);

Hi there! I need viability for each item below, if you can.
1. Cn1c(/N=C/c2cccs2)nc2ccccc21
2. CCOC(=O)Cc1csc(NC(=O)c2c(-c3ccccc3)noc2C)n1
3. C=CCn1c(CSc2nc3ccccc3s2)nnc1SCC(=O)OCC

[out]
1. 94.8
2. 101
3. 101

###

# assay details: viability gain of MRP-1-high H69AR cells under doxorubicin, pilot screen, MRP-1 activator project, CellTiter-Glo, duplicate (AID 807);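 note: compound pretreatment 18-22 h then 72 h combined with doxorubicin; 0% = doxorubicin alone and 100% = vehicle without doxorubicin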
# test settings: H69AR viability with doxorubicin, CellTiter-Glo luminescence; at 10 µM; hits give high values
measured metric: viability increase (%)
Give bare numbers, in %.

See these solved cases before continuing.
INSERT INTO assay_data (compound, measured_value) VALUES
  ('CC(c1cccnc1)N(C(=O)Nc1ccccc1)C1CCCCC1 (centres undefined)', -2.35),
  ('CC(=O)Cc1nsc(NC(=O)C2Cc3ccccc3C(=O)O2)n1 (centres undefined)', -1.57),
  ('Cc1cc(C)c(S(=O)(=O)N2CCN(C)CC2)c(C)c1', 1.1),
  ('CCN1CCn2c3c(c4cc(C)ccc42)CCCC31 (centres undefined)', -2.11),
  ('N#CC(c1nc2ccccc2nc1N1CCCC1)S(=O)(=O)c1ccccc1 (centres undefined)', -4.56);

Hi there! I need viability increase for each item below, if you can.
1. Cc1nnc(NC(=O)CSc2nnc(Cc3cccn3C)n2-c2ccccc2)s1
2. CCN(CC)C(=O)CSc1ccccc1N
3. CCn1c(=O)cc(O)c2ccccc21

[out]
1: 0.97; 2: -1.98; 3: -1.68

Hi there! I need viability increase for each item below, if you can.
1. Cc1ccc2cc(CCNC(=O)C3CCCC3)c(=O)[nH]c2c1
2. C=CCOC(=O)C1=C(C)N=C2SCCC(=O)N2C1c1ccc(OC(=O)c2ccco2)cc1 (centres undefined)
3. Cn1c(=NC(=O)C2CC2)sc2cccc(F)c21

[out]
[1.09, -0.72, -4.82]

Hi there! I need viability increase for each item below, if you can.
1. Cc1onc(-c2ccccc2)c1C(=O)Nc1ccc2c(c1)OCCO2
2. CC(=O)c1cccc(NC(=O)C2CCCN(S(=O)(=O)c3cccc4cccnc34)C2)c1 (centres undefined)
3. CCOc1ccc(/C(=N\O)C(C)NO)cc1 (centres undefined)
4. CN1CCc2c(c3ccccc3n2Cc2ccccc2)C1
5. Cc1c(NC(=O)C2CCCN2S(=O)(=O)c2ccccc2)c(=O)n(-c2ccccc2)n1C (centres undefined)

[out]
-0.35
-2.34
1.06
-5.7
-1

Hi there! I need viability increase for each item below, if you can.
1. Cc1cc(Nc2cc(F)ccc2C)n2ncnc2n1
2. O=C(c1ccncc1)N1CCN(C(=O)c2cccc3ccccc23)CC1
3. CCN(CC)CCCNC(=O)c1cc2c(-c3ccc(Cl)cc3)nn(C)c2s1
4. CCC(C)NC(=O)CS(=O)Cc1nc(-c2ccccc2C)oc1C (centres undefined)
5. CNc1ccc(OC(F)F)cc1C(=O)c1ccccc1
6. Cc1ccc2c(c1)NCC(C(=O)NCc1ccccc1)O2 (centres undefined)
7. CN1CCN(S(=O)(=O)c2ccc3c4c(cccc24)C(=O)N3)CC1

[out]
1. -0.28
2. -2.73
3. -8.12
4. -2.38
5. -2.34
6. 0.49
7. -2

Record COc1cc(OC)c(C2Oc3nc(SC)nnc3-c3ccccc3N2C(C)=O)cc1OC (centres undefined) , field viability increase: -4.95

###

For each entry below, report its growth inhibition value.
# assay details: OD615 S. cerevisiae growth inhibition, permissive medium, pilot counter-assay, permissive growth control for S. cerevisiae lifespan shortening project (AID 705)
# test settings: OD615, 24 h, at 10 µM, hits give high values
Answers are plain numbers, in %.

INSERT INTO results (molecule, measured_metric, measured_value) VALUES
  ('COc1ccc(C)cc1NC(=O)CSc1nnc(-c2ccco2)n1Cc1ccco1', 'growth inhibition', -0.8);

Hi there! I need growth inhibition for each item below, if you can.
1. O=C1CCC(C(=O)N(c2ccccc2)C2(C(=O)NC3CCCCC3)CCCCC2)N1 (stereo not drawn)
2. CCn1c(=O)c2cc(C(=O)N3CCOCC3)sc2c2ccccc21
3. COc1ccc(NC2c3ccccc3C(=O)N2Cc2ccco2)cc1OC (stereo not drawn)

[out]
1.54
-8.55
6.53

###

# assay details: growth suppression of PTEN-deleted HCT116, pilot screen, cell-based, HCT116 clonal line, CellTiter-Glo (AID 824);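 note: 0% = 20 µM Hyamine control and 100% = vehicle cell control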
# test settings: 60 h, at 10 µM, hits give low values
Results filed as inconclusive are left out.
For each entry below, report its viability value.
Answers are plain numbers, in %.

See these solved cases before continuing.
INSERT INTO assay_data (compound, measured_metric, unit_spec, measured_value) VALUES
  ('Cc1ccc(O)c(-c2cc(C(F)(F)C(F)F)nc(-c3ccccc3)n2)c1', 'viability', '%', 73),
  ('Cc1nc(SCC(=O)NCc2ccco2)c2oc3ccccc3c2n1', 'viability', '%', 94),
  ('COC(=O)c1c(C)nc(C)c2c(=O)oc3ccccc3c12', 'viability', '%', 104);

Hi there! I need viability for each item below, if you can.
1. c1ccc2[nH]c(SCCN3CCOCC3)nc2c1
2. CN1C(=O)NC(c2ccccc2)C2=C1CN(Cc1ccco1)C2=O (stereo unspecified)
3. COc1ccc(C2N3CC4(C)CN2CC(C)(C3)C4=O)cc1OC (stereo unspecified)
4. CCOC(=O)C1CCCN(c2c(NCCCN3CCCC(C)C3)c(=O)c2=O)C1 (stereo unspecified)

[out]
[104, 89.7, 103, 94.4]

###

# assay details: inhibitors of the yeast RAM network, pilot screen, dse1pr::URA3 reporter, 5-FOA selection (AID 869);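 note: 0% = DMSO wells with no growth and 100% = 10 µM 1-NA-PP1 with full growth; RAM network block rescues cells from 5-FOA so hits raise OD615 growth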
# test settings: S. cerevisiae dse1pr::URA3 5-FOA growth, OD615, 2 d; at 10 µM; hits give high values; strain carries analog-sensitive mutant Cbk1 kinase
For each entry below, report its inhibition value.
Numbers only, in %.

Hi there! I need inhibition for each item below, if you can.
1. COc1cc(C2C3=C(CC(c4ccco4)CC3=O)Nc3ccccc3N2C(C)=O)cc(OC)c1OC (stereo not given)
2. N#CC1=C(N)C(C#N)(C#N)C2(C(=O)Nc3ccccc32)C2CCCC=C12 (stereo not given)
3. CCC(C)NC(=O)CCCCCn1c(=O)[nH]c2cc(OC)c(OC)cc2c1=O (stereo not given)
4. Cc1ccc(N2C(=O)CC(N3CCN(C4CCc5ccccc5C4)CC3)C2=O)cc1 (stereo not given)
5. CCOC(=O)N1CCC(N2C(=O)c3cc(C(=O)NC4CCCCC4)ccc3C2O)CC1 (stereo not given)

[out]
[1.3, 0.71, 0.065, 0.215, 0.045]
